Assay Summary: binders from COS7 lysate, DM2A8 probe, primary screen, torsin A project, cell lysate, small-molecule microarray, fluorescence 635/667 (AID 1065)
Conditions Used: higher = more signal, COS7 lysate expressing mutant human TOR1A
Exercise: for every item that follows, state its recorded composite z-score.
Reply briefly: the number, and no unit.

[ask] Quick check: composite z-score of COC(=O)C(CC#Cc1ccc2c(c1)[C@]1(C(=O)N2)[C@H](C(=O)Nc2nc3ccccc3s2)[C@H]2C(=O)O[C@H](c3ccccc3)[C@H](c3ccccc3)N2[C@@H]1c1ccc(OCCO)cc1)C(=O)OC ?
[reply] 0.444

[ask] What value of composite z-score has been recorded for this entry: O=C1C2C=CC(C(O)c3ccco3)N(Nc3ccccc3)C2C(=O)N1c1ccccc1 (centres undefined)
[reply] -0.79

[ask] Entry Cc1ccc(S[C@]2(C(=O)NC(C)C)CC(=O)N(Cc3ccccc3Cl)[C@@H]2c2ccc(CO)cc2)cc1 : reported composite z-score = ?
[reply] -1.59

[ask] I am curious: what composite z-score value has been reported for CCOC(=O)C[C@H]1[C@H](OC(=O)c2ccc(-c3ccccc3)cc2)[C@@H](NC(=O)Cc2ccc(OC)cc2)c2cc(OCCCO)ccc2N1C(=O)Cc1ccc(OC)cc1 ?
[reply] -0.236

====

Hi there, I'd appreciate the recorded z-score for every entry that follows.
Assay Summary: PSAC antagonists in infected red cells, primary screen, cell-based, P. falciparum Indochina, OD700, 2 h (AID 1155);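 note: lysis reports solute entry through the parasite surface anion channel PSAC; channel blockers reduce lysis of infected cells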
Conditions Used: P. falciparum Indochina infected erythrocytes, osmotic lysis OD700; higher = more signal, called active from +8 up or from −8 down
The answer should be a number; do not append a unit.

[ask] GET /values?readout=z-score&item= COC(=O)C1=CC(CCCO)=CC(c2ccc(CN3CCCC3)cc2)N(Cc2cc3c(cc2Br)OCO3)C=C1C(=O)OC (configuration not stated)
[reply] 0.408

[ask] Please look up its z-score: C=C(COC)/C(=C/C[C@@H](OC(=O)c1ccncc1)c1ccccc1OCCO)c1cc(C(=O)OC)ccc1OC
[reply] 6

[ask] Which z-score is reported for this compound? Cc1ccc(S[C@]2(C(=O)NCc3ccccc3)CC(=O)N(Cc3cc(C(F)(F)F)cc(C(F)(F)F)c3)[C@@H]2c2ccc(CO)cc2I)cc1
[reply] 0.769

[ask] Which z-score value is on record for C=CCC(OC(C)=O)[C@@H]1[C@@H](N(Cc2ccc(-c3cccc(C(F)(F)F)c3)o2)C(=O)Cc2ccc(OC)cc2)c2cc(OCCCO)ccc2N1C(=O)Cc1ccc2ccccc2c1 (some centres not stated) ?
[reply] 0.214

[ask] What value of measured z-score is listed for C=C(COC)/C(=C/C[C@@H](OC(C)=O)c1ccc(CO)o1)c1cc(C(=O)OC)ccc1OC ?
[reply] 0.362

[ask] z-score lookup needed for CC(C)CNC(=O)[C@@]1(c2ccc([N+](=O)[O-])cc2)CC(=O)N(C2CCCCC2)[C@@H]1c1ccc(CO)cc1 , thanks.
[reply] -0.189

[ask] Given the compound C=C[C@@H](C)[C@H](O)c1ccc(OCCO)cc1 , what is its reported z-score?
[reply] 0.833

====

Consider the following molecules; for each one, report its z-score.
Assay Summary: basal RPMI8226 mitochondrial membrane potential changes, profiling panel, cell-based, JC-1 fluorescence, 24 h, 100 nL compound (AID 1169); note: test concentration not given here
Conditions Used: RPMI8226 myeloma, JC-1 mitochondrial potential fluorescence, higher = more signal
Response field accepts a number only; no unit should be typed.

[ask] For the molecule shown here, C=C(CCCC)C(=O)CC[C@H](OC(=O)c1ccccc1-c1ccccc1C(=O)O)c1ccccc1OCCO , give the reported z-score.
[reply] -0.873

[ask] For the molecule shown here, CN(C)C(=O)[C@@]1(CCC(=O)OC(C)(C)C)N=C(c2ccc(OCCCO)cc2)O[C@H]1c1ccccc1CN=[N+]=[N-] , give the reported z-score.
[reply] -1.18

[ask] // lookup z-score for CCCC=C(CCC)[C@@H](NS(=O)(=O)c1cccc2cccnc12)c1ccc(-c2ccccc2)cc1
[reply] -0.361
